Please go through the items and note down their Hb.
Tested on: EAC-bearing mice
run.description: Haematological parameters of EAC-bearing mice
Assay type: in vivo, mouse
test.conditions: treatment at IC50 dose, mean±SD n=6

Req: Annotate the compound COc1cc(O)c2c(=O)c3c(O)ccc(OC)c3oc2c1 [XB, 1,8-dihydroxy-3,5-dimethoxyxanthone] with its measured Hb.
Resp: 7.4 ± 0.5 g/dL

Req: Provide one value: measured Hb of COc1cc(O)c2c(=O)c3c(OC)ccc(OC)c3oc2c1 [XC, 1-hydroxy-3,5,8-trimethoxyxanthone]
Resp: 7.9 ± 0.9 g/dL

Req: Provide only the value of recorded Hb for COc1cc(O)c2c(=O)c3c(O)ccc(O)c3oc2c1 [XD, 1,5,8-trihydroxy-3-methoxyxanthone]
Resp: 10 ± 2 g/dL

Req: Specify reported Hb for the compound shown: N.N.[Cl][Pt][Cl] [Cisplatin, reference compound]
Resp: 2.1 ± 0.4 g/dL

Req: Return value of Hb for input COc1cc(O)c2c(=O)c3c(OC)c(OC)ccc3oc2c1 [XA, 1-hydroxy-3,7,8-trimethoxyxanthone] , no commentary.
Resp: 7.5 ± 0.8 g/dL
